tested on: A498; test: NCI tumour cell line growth inhibition, 48 h
Activity calls are given as the source filed them. No stated cut-off is given here; in the data, active = GI50 up to about 1.1 µM and inactive = higher.
Possible outcomes: active, inactive

INSERT INTO results (molecule, assigned_category) VALUES
  ('CSC(=S)NNC(=O)c1ccncc1', 'inactive'),
  ('CCN(CCN(CC)C(=O)Nc1ccccc1)C(=O)Nc1ccccc1', 'inactive'),
  ('[O-][n+]1c2cc3c(cc2[n+]([O-])c2c(O)cccc21)CN(CCN1CCOCC1)C3', 'inactive'),
  ('CC1OC(O[C@H]2C3C=CO[C@@H](OC4OC(CO)C(O)C(O)C4O)C3[C@@]3(COC(=O)/C=C/c4ccc(O)cc4)O[C@@H]23)C(O)C(O)C1O (some centres not stated)', 'inactive'),
  ('CN(C)/C=N/S(=O)(=O)c1nn2c(C=O)c(-c3ccc([N+](=O)[O-])cc3)nc2s1', 'inactive'),
  ('c1ccc2c(c1)N[C@@H]1c3[nH]c4ccccc4c3CC[C@H]21', 'inactive'),
  ('Cc1ccc(/C=C/C(=O)c2sc(C(N)=S)nc2C)cc1', 'inactive'),
  ('O=C(Nc1cc(Cl)c(Cl)cc1Cl)C(=O)C1C(=O)NC(=S)NC1=O', 'inactive'),
  ('COc1ccc(/C=C2\Sc3nnc(C)n3N=C2c2cc(F)c(Cl)cc2Cl)cc1OC', 'inactive'),
  ('O=C(N[C@@H](Cc1ccccc1)B(O)O)[C@H](Cc1cccc2ccccc12)NC(=O)N1CCOCC1', 'active'),
  ('Cc1ccc2nnc(NS(=O)(=O)c3cc(C)c(Cl)cc3S)n2n1', 'inactive'),
  ('C=CCOC(=O)c1c(C)[n+]([O-])c2cc(Cl)c(Cl)cc2[n+]1[O-]', 'inactive'),
  ('CCOP(C)(=O)C(Nc1ccc(F)cc1)c1ccc(F)cc1 (configuration not stated)', 'inactive'),
  ('CC1(C)CN=C(c2ccc3ccccc3c2O)N1', 'inactive'),
  ('CCN(CC(O)COc1ccc2c(c1)[n+]([O-])nc(N)[n+]2[O-])C(C)=O (configuration not stated)', 'inactive'),
  ('O=C1/C(=C\c2cccc(Oc3ccccc3)c2)S(=O)(=O)C(c2ccccc2)N1c1cc(Cl)ccc1Cl (configuration not stated)', 'inactive'),
  ('C[C@@H](NC(=O)[C@@H]1C[C@]1(C)CO)c1cccc2ccccc12', 'inactive'),
  ('Cn1c2ccccc2c2cc(-c3ccccc3)c3c(c21)C(=O)c1ccccc1C3=O', 'inactive'),
  ('[N-]=[N+]=NI1OC(C(F)(F)F)(C(F)(F)F)c2ccccc21', 'inactive'),
  ('CCN(CCCl)c1cc(CN(C)C)cc(NC(=O)c2ccc(C(=O)Nc3cccc(CN(C)C)c3)cc2)c1', 'inactive'),
  ('COC1CC(O[C@H]2CC[C@@]3(C)[C@@H](CC[C@]4(O)[C@@H]3CC[C@]3(C)[C@@H](C(C)=O)[C@H](OC(=O)CC(C)C)[C@@H](OC(=O)c5ccccc5)[C@@]34O)C2)OC(C)C1OC1CC(OC)C(OC2OC(C)C(O)C(OC)C2O)C(C)O1 (some centres not stated)', 'inactive'),
  ('CNc1ccc(C(=O)CC(O)CCC(C)C2OC(=O)CC(O)CC(=O)CC(O)CC(O)CC(O)CC(O)CC3(O)CC(O)C(C(=O)NCCN4CCOCC4)C(CC(OC4OC(C)C(O)C(N)C4O)\C=C/C=C\C=C/C=C/C=C/C=C\C=C/C2C)O3)cc1 (configuration not stated)', 'active'),
  ('CCC/C(Cl)=N/OC(=O)Nc1cc(C(F)(F)F)ccc1OC', 'inactive'),
  ('O=c1/c(=C/c2ccc(-c3ccc(Cl)cc3Cl)o2)sc2n1[C@@H](c1ccc3c(c1)OCO3)C=C(c1cc(F)c(Cl)cc1Cl)N=2', 'inactive'),
  ('c1ccc(COC2C3COC(O3)C(OCc3ccccc3)C2OCc2ccccc2)cc1 (configuration not stated)', 'inactive'),
  ('O=C(O)C1SCCS1', 'inactive'),
  ('CCCCCCCCCCCCC/C=C/[C@@H](O)[C@H](COC1OC(CO)C(OC2OC(CO)C(O)C(OC3(C(=O)O)CC(O)C(NC(C)=O)C(C(O)C(O)CO)O3)C2O)C(O)C1O)N=[N+]=[N-] (some centres not stated)', 'inactive'),
  ('CC1=C(C(=O)N[C@@H](CC(C)C)C(=O)O)N2C(=O)[C@@H](NC(=O)[C@@H](N)Cc3ccccc3)[C@H]2SC1', 'inactive'),
  ('Cc1ccc(Nc2cc(=O)[nH]c(=O)[nH]2)cc1CS', 'inactive'),
  ('COC(OC)C(C)CC(=O)N(C)C (configuration not stated)', 'inactive'),
  ('COC(=O)C1(NC(=O)C(Cc2ccccc2)N(C(=O)OC(C)(C)C)C(=O)OC(C)(C)C)CCCC1 (configuration not stated)', 'inactive'),
  ('Cc1cc(Nc2ccc(S(=O)(=O)O)c3cc(S(=O)(=O)O)cc(S(=O)(=O)O)c23)c2ccccc2n1', 'inactive'),
  ('NCCCNCCCCN1CCOC1=O', 'inactive'),
  ('C/C(=C\c1ccccn1)c1ccccn1', 'inactive'),
  ('C=C1C=CC2(Br)OC3CC(C)(Cl)C(Br)CC13C2(C)C (configuration not stated)', 'inactive'),
  ('Cc1ccc(NC(=O)c2ccccc2C(=O)O)cc1C', 'inactive'),
  ('O=[N+]([O-])c1cc(C(F)(F)F)cc([N+](=O)[O-])c1CCl', 'inactive');
